The values you see were collected from patent US20250090699A1.

In this section, each of the compounds is paired with its reported pIC50.
# Measured On: human FAP (Homo sapiens)
# Sequence (Q12884 26-760): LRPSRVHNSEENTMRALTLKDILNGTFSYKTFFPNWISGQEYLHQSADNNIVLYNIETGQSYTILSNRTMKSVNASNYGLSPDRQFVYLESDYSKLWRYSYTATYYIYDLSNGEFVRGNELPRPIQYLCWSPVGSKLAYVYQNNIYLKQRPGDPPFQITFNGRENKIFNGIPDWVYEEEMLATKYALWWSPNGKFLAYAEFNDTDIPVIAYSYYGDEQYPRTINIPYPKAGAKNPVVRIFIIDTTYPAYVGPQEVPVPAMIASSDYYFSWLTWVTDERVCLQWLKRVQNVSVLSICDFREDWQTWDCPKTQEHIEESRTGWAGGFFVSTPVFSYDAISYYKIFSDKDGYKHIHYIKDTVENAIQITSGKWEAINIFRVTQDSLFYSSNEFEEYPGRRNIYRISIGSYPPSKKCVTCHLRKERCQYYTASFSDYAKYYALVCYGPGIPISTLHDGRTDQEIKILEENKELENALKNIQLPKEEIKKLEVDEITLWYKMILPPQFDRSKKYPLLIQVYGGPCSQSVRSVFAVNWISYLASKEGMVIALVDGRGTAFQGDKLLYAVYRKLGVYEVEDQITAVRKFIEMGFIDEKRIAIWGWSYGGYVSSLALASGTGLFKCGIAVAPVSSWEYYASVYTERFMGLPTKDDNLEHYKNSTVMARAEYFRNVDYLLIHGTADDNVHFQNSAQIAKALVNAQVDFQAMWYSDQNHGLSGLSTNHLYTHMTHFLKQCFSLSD
Where a name gives a salt, the structure may show the parent alone. Starred links: 1 amine or outer side, 2 acyl side, 3 side chain; linkers in the order of their positions; H or OH if unused. Non-standard residues stand in square brackets, D forms with d. Residues, ends and D or L forms follow the SMILES beside them. Groups on a side chain read outwards from the residue. *: point of attachment. X8 = O=C(O)CN1CCN(CC(=O)O)CCN(CC(=O)O)C(Cc2ccc(NC(=S)*)cc2)CN(CC(=O)O)CC1; Pyrrolidine(2S-CN,4,4-F2) = N#C[C@@H]1CC(F)(F)CN1*; Phe(4-CH2NH2) = NCc1ccc(C[C@H](N)C(=O)O)cc1; Piperazinyl(4-CH2COOH) = O=C(O)CN1CCN(*)CC1; NMeF = CN[C@@H](Cc1ccccc1)C(=O)O; Ahp(2) = CCCCC[C@H](N)C(=O)O; NMeK = CN[C@@H](CCCCN)C(=O)O; hSer = N[C@@H](CCO)C(=O)O; dNMeA = CN[C@H](C)C(=O)O; AEEA = NCCOCCOCC(=O)O; CO = O=C([*:1])[*:2]; Propyl = CCC*
pIC50 (log units): -log10 of the concentration in mol/L.

// known answers, use as guide
Ask: For the record CCCCC[C@@H]1NC(=O)[C@H](Cc2ccc(O)cc2)NC(=O)[C@H](Cc2ccccc2)N(C)C(=O)CNC(=O)[C@@H](CO)NC(=O)[C@H]2CCCN2C(=O)[C@H](CC(=O)O)NC(=O)[C@H](Cc2ccc(O)cc2)NC(=O)CNC(=O)[C@H](Cc2c[nH]c3ccccc23)NC1=O [Example A69] (cyclo([Ahp(2)]WGYD[dP][dS]G[NMeF]Y)) , what value of pIC50 is listed for human FAP (Homo sapiens)?
Result: 9.92

Ask: Please provide the recorded pIC50 for CCCCC[C@@H]1NC(=O)[C@H](Cc2ccc(O)cc2)NC(=O)[C@H](Cc2ccccc2)N(C)C(=O)CNC(=O)CNC(=O)[C@H]2CCCN2C(=O)[C@H](CCO)NC(=O)[C@H](Cc2ccc(O)cc2)NC(=O)CNC(=O)[C@H](Cc2c[nH]c3ccccc23)NC1=O [Example A57] (cyclo([Ahp(2)]WGY[hSer][dP]GG[NMeF]Y)) , tested on human FAP (Homo sapiens).
Result: 8.18

Ask: Lab request: please report pIC50 under test system human FAP (Homo sapiens) for CCCOCC[C@@H]1NC(=O)[C@H](Cc2ccc(CNC(=O)COCCOCCNC(=S)Nc3ccc(CC4CN(CC(=O)O)CCN(CC(=O)O)CCN(CC(=O)O)CCN4CC(=O)O)cc3)cc2)NC(=O)[C@H](Cc2ccccc2)N(C)C(=O)CNC(=O)CNC(=O)[C@H]2CCCN2C(=O)[C@H](CC(=O)O)NC(=O)[C@H](CCCCNC(=O)N2CCN(CC(=O)O)CC2)NC(=O)CNC(=O)[C@H](Cc2c[nH]c3ccccc23)NC1=O (some centres unmarked) [Example B35] (cyclo(D[dP]GG[NMeF][Phe(4-CH2NH2)]([AEEA-X8])[hSer](Propyl)WGK([CO-Piperazinyl(4-CH2COOH)])))
Result: 10.68

Ask: Request - read-out pIC50 | tested on human FAP (Homo sapiens) | compound CCCCC[C@@H]1NC(=O)[C@H](Cc2ccc(O)cc2)NC(=O)[C@H](Cc2ccccc2)N(C)C(=O)CNC(=O)CNC(=O)[C@H]2CCCN2C(=O)[C@H](CC(=O)O)NC(=O)[C@H](Cc2ccc(O)cc2)NC(=O)[C@@H](C)NC(=O)[C@H](Cc2c[nH]c3ccccc23)NC1=O [Example A64] (cyclo([Ahp(2)]W[dA]YD[dP]GG[NMeF]Y))
Result: 8.62

Ask: Observed pIC50 on human FAP (Homo sapiens) for CCCCC[C@@H]1NC(=O)[C@H](Cc2ccc(O)cc2)NC(=O)[C@H](Cc2ccccc2)N(C)C(=O)CNC(=O)CNC(=O)[C@@H](C)N(C)C(=O)[C@H](CC(=O)O)NC(=O)[C@H](Cc2ccc(O)cc2)NC(=O)CNC(=O)[C@H](Cc2c[nH]c3ccccc23)NC1=O [Example A65] (cyclo([Ahp(2)]WGYD[dNMeA]GG[NMeF]Y)) , please.
Result: 9.47

More entries:
Ask: Form field: pIC50 recorded for CCCCC[C@@H]1NC(=O)[C@H](Cc2ccc(O)cc2)NC(=O)[C@H](Cc2ccccc2)N(C)C(=O)CNC(=O)CNC(=O)[C@H]2CCCN2C(=O)[C@H](CC(=O)O)NC(=O)[C@H](CCCCNC(=O)N2CCN(CC(=O)O)CC2)N(C)C(=O)CNC(=O)[C@H](Cc2c[nH]c3ccccc23)NC1=O [Example A3, TFA salt] (cyclo([Ahp(2)]WG[NMeK]([CO-Piperazinyl(4-CH2COOH)])D[dP]GG[NMeF]Y)) with human FAP (Homo sapiens) (enter value)
Result: 9.12

Ask: Please tell me: pIC50 of CCCCC[C@@H]1NC(=O)[C@H](Cc2ccc(O)cc2)NC(=O)[C@H](Cc2ccccc2)N(C)C(=O)CNC(=O)[C@H](CO)NC(=O)[C@H]2CCCN2C(=O)[C@H](CC(=O)O)NC(=O)[C@H](Cc2ccc(O)cc2)NC(=O)CNC(=O)[C@H](Cc2c[nH]c3ccccc23)NC1=O [Example A19] (cyclo([Ahp(2)]WGYD[dP]SG[NMeF]Y)) , system human FAP (Homo sapiens)?
Result: 9.84

Ask: Any idea what pIC50 came out for CN1C(=O)CNC(=O)[C@H](CCCCN)NC(=O)[C@H]2CCCN2C(=O)[C@H](CC(=O)O)NC(=O)[C@H](Cc2ccc(O)cc2)NC(=O)CNC(=O)[C@H](Cc2c[nH]c3ccccc23)NC(=O)[C@H](CCC(=O)N2CC(F)(F)C[C@H]2C#N)NC(=O)[C@H](Cc2ccc(O)cc2)NC(=O)[C@@H]1Cc1ccccc1 [Example A29] (cyclo(KG[NMeF]YE(Pyrrolidine(2S-CN,4,4-F2))WGYD[dP])) on human FAP (Homo sapiens)?
Result: 10.23

---

# Measured On: mouse FAP (Mus musculus)
# Construct: biotinylated His, Avi tag, mouse FAP (26-761, FAP-M82Q5); His; Avi tag (biotinylated); purchased AcroBiosystems FAP-M82Q5
# Sequence (P97321 26-761): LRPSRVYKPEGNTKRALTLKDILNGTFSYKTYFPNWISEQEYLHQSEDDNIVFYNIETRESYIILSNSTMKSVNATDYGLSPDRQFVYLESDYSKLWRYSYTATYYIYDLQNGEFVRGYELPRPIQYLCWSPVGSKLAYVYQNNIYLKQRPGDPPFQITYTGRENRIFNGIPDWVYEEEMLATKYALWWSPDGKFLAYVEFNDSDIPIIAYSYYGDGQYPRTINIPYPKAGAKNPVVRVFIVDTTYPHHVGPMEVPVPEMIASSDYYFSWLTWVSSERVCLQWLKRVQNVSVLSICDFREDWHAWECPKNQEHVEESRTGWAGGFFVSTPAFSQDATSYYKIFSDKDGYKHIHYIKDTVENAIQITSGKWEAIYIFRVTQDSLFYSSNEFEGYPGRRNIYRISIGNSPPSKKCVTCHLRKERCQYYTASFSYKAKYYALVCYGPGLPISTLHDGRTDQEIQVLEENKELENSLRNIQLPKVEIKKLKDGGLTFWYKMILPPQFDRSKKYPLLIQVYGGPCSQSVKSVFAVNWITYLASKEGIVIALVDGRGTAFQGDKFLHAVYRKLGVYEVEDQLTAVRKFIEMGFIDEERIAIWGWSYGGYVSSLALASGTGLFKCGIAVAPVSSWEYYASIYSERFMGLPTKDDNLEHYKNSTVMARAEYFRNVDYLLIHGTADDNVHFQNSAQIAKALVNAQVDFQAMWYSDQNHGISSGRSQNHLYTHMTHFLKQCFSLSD
# Assay Text: Surface plasmon resonance (SPR) for peptide affinity, mouse FAP
# Type: binding
Counter-ions that a name gives are not always drawn. Starred links: 1 amine or outer side, 2 acyl side, 3 side chain; linkers in the order of their positions; H or OH if unused. Non-standard residues stand in square brackets, D forms with d. Residues, ends and D or L forms follow the SMILES beside them. Groups on a side chain read outwards from the residue. *: point of attachment. X8 = O=C(O)CN1CCN(CC(=O)O)CCN(CC(=O)O)C(Cc2ccc(NC(=S)*)cc2)CN(CC(=O)O)CC1; Phe(4-CH2NH2) = NCc1ccc(C[C@H](N)C(=O)O)cc1; Piperazinyl(4-CH2COOH) = O=C(O)CN1CCN(*)CC1; NMeF = CN[C@@H](Cc1ccccc1)C(=O)O; Aoc(2) = CCCCCC[C@H](N)C(=O)O; Ahp(2) = CCCCC[C@H](N)C(=O)O; hSer = N[C@@H](CCO)C(=O)O; AEEA = NCCOCCOCC(=O)O; CO = O=C([*:1])[*:2]; Propyl = CCC*
Measured Endpoint: Kd (pM)
Quick reminder: number only, in pM, skip the unit.

Solved entries (count: 2):
Ask: Data request, read-out Kd, for CCCOCC[C@@H]1NC(=O)[C@H](Cc2ccc(CNC(=O)COCCOCCNC(=S)Nc3ccc(CC4CN(CC(=O)O)CCN(CC(=O)O)CCN(CC(=O)O)CCN4CC(=O)O)cc3)cc2)NC(=O)[C@H](Cc2ccccc2)N(C)C(=O)CNC(=O)CNC(=O)[C@H]2CCCN2C(=O)[C@H](CC(=O)O)NC(=O)[C@H](CCCCNC(=O)N2CCN(CC(=O)O)CC2)NC(=O)CNC(=O)[C@H](Cc2c[nH]c3ccccc23)NC1=O (stereo partly drawn) [Example B35] (cyclo(D[dP]GG[NMeF][Phe(4-CH2NH2)]([AEEA-X8])[hSer](Propyl)WGK([CO-Piperazinyl(4-CH2COOH)])))
Result: 59

Ask: I have this compound here, CCCCCC[C@@H]1NC(=O)[C@H](Cc2ccc(O)cc2)NC(=O)[C@H](Cc2ccccc2)N(C)C(=O)CNC(=O)[C@H](CCCCN)NC(=O)[C@H]2CCCN2C(=O)[C@H](CC(=O)O)NC(=O)[C@H](Cc2ccc(O)cc2)NC(=O)CNC(=O)[C@H](Cc2c[nH]c3ccccc23)NC1=O [Example A31, TFA salt] (cyclo([Aoc(2)]WGYD[dP]KG[NMeF]Y)) , and I need its recorded Kd.
Result: 106

---
Ask: Suppose we examine the compound CCCCC[C@@H]1NC(=O)[C@H](Cc2ccc(O)cc2)NC(=O)[C@H](Cc2ccccc2)N(C)C(=O)CNC(=O)[C@@H]2CCCN2C(=O)[C@H]2CCCN2C(=O)[C@H](CC(=O)O)NC(=O)[C@H](Cc2ccc(O)cc2)NC(=O)CNC(=O)[C@H](Cc2c[nH]c3ccccc23)NC1=O [Example A51] (cyclo(G[NMeF]Y[Ahp(2)]WGYD[dP]P)) ; what Kd value has been reported?
Result: 185
